Target: PI3K alpha (Homo sapiens, UniProt P42336)
Sequence (P42336 whole entry, species assumed): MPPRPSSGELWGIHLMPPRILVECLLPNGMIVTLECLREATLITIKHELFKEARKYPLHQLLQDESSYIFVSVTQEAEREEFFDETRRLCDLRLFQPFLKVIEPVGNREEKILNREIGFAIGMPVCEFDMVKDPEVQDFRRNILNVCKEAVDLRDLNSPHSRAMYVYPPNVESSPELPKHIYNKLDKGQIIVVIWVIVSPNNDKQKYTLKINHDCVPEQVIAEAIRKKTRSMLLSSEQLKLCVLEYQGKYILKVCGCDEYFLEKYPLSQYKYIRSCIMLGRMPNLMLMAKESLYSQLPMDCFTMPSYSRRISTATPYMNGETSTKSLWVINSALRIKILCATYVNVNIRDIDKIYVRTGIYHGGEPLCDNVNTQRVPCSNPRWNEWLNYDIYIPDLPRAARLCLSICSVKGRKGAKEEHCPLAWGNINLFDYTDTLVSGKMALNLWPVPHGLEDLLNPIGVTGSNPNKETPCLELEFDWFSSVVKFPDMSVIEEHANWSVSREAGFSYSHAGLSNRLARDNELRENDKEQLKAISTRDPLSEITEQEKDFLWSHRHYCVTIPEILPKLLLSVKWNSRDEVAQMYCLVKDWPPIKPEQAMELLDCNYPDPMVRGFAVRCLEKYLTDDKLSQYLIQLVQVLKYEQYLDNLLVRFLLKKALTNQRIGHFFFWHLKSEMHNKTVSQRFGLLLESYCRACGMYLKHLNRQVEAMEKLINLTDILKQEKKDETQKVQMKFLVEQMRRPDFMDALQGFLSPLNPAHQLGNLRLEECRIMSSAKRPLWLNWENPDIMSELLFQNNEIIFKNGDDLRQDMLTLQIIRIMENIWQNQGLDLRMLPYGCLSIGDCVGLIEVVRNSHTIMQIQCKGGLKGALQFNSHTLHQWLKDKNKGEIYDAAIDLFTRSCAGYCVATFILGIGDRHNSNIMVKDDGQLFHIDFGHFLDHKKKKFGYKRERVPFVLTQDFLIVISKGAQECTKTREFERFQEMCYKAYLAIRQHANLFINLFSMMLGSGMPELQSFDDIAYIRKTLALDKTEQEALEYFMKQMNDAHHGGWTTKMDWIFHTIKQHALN
Sequence (P27986 whole entry partner, species assumed): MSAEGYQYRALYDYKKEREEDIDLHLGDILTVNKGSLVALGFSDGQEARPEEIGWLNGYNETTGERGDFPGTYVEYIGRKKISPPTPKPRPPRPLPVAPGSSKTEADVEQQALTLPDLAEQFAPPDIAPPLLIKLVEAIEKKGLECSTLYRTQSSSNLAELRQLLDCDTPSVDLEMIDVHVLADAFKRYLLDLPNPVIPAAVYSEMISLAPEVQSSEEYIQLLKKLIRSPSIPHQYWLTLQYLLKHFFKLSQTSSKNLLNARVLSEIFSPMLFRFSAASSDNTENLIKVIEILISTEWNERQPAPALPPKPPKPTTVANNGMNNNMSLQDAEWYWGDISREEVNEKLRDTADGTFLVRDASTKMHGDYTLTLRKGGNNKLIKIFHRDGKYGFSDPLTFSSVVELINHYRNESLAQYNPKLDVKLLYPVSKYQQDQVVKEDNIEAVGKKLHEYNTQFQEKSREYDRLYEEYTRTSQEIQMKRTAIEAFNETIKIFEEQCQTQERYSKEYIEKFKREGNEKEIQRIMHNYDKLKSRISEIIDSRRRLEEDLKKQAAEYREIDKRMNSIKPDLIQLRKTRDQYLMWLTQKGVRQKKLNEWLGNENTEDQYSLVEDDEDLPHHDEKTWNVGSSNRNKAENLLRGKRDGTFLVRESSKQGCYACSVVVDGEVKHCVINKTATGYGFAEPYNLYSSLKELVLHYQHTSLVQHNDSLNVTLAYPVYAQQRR
Experiment: PI3 Kinase Assay (PI3K alpha)
Type: biochemical
Rule: inhibition at 30 µM under 40% gives n, otherwise y.

# input Identify whether the reported inhibition at 30 µM of the following compound is 40% or greater: "FC(F)(F)c1ccc(Oc2ncnc3ccccc23)cc1"
# output n

# input Identify whether the reported inhibition at 30 µM of the following compound is 40% or greater: "COc1ccc(Oc2ncnc3ccccc23)cc1"
# output y

# input Identify whether the reported inhibition at 30 µM of the following compound is 40% or greater: "COC(=O)c1sc2ncnc(Oc3ccccc3)c2c1C"
# output y

* * *

Target: UniProt P48736
Sequence (P48736 whole entry, species assumed): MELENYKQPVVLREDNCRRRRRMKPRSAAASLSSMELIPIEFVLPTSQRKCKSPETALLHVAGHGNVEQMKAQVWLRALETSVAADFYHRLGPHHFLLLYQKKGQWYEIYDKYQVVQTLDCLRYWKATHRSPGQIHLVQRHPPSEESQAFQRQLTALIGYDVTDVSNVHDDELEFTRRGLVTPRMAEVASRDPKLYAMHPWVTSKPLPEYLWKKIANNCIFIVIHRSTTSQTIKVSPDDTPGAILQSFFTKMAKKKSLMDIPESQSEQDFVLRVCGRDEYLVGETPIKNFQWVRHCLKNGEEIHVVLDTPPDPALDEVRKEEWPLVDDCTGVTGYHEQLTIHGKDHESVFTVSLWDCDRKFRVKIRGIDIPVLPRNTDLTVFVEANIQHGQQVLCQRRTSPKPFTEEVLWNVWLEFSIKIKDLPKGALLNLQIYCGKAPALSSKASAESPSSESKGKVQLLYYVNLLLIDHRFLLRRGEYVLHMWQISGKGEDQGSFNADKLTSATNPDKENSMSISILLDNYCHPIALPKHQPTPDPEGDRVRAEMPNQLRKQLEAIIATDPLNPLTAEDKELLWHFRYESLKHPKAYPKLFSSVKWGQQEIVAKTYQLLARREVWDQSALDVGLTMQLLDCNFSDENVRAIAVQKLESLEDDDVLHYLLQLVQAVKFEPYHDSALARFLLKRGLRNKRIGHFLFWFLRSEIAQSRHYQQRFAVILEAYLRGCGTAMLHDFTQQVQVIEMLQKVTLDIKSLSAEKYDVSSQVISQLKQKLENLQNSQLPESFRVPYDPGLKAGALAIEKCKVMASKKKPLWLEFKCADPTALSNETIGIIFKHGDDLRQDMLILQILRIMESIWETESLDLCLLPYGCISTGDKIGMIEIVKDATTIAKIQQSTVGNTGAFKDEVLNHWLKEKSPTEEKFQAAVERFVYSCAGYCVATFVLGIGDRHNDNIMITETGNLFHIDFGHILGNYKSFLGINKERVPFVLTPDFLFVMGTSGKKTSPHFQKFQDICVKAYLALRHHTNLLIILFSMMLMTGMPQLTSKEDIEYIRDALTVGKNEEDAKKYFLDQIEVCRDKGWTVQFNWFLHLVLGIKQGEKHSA
Experiment: PI3 Kinase Assay (PI3K gamma)
Format: biochemical
Settings: 1 h
# reported inhibition at 30 µM; entries follow
I only need the number, in %, no unit after it.

Sample records with inhibition at 30 µM:
>  <Compound>
CC(=O)c1ccc(Oc2ncnc3ccccc23)cc1 [Example 22, 1-(4-(Quinazolin-4-yloxy)phenyl)ethanone]

>  <Experimental target>
UniProt P48736

>  <Unit symbol>
%

>  <Measured number>
45

$$$$
>  <Compound>
COc1ccc(Oc2ncnc3ccccc23)cc1 [Example 20, 4-(4-Methoxyphenoxy)quinazoline]

>  <Experimental target>
UniProt P48736

>  <Unit symbol>
%

>  <Measured number>
4

$$$$

Here is the next item to consider.
Entry COC(=O)c1sc2ncnc(Oc3ccccc3)c2c1C [Example 36] ; inhibition at 30 µM = 36
